tested on: UO-31; test: NCI tumour cell line growth inhibition, 48 h
Activity calls are given as the source filed them. Rule as the data show it: active = GI50 up to about 1.1 µM and inactive = higher.
Outcomes: 1 (active), 0 (inactive)

molecule	target.or.system	class
COP(=O)(CC(=O)C1OC(C)(C)OC1C(O)COCc1ccccc1)OC (stereo not drawn)	UO-31	0
CCOC(=O)c1nc2ccc(Cl)cc2c2c1Cc1ccccc1-2	UO-31	0
N#CC1=C(N2CCCC2)NC(=O)CC1=O	UO-31	0
C/C(=C\CNc1nc(Cl)nc2[nH]cnc12)CO	UO-31	0
CN1CCC(O)C(CNC23CC4CC(CC(C4)C2)C3)C1 (stereo not drawn)	UO-31	0
NNC(=O)N/N=C1\C(=O)N(c2nccs2)C(=O)C(=O)C1c1nc2ccccc2s1 (stereo not drawn)	UO-31	0
C#CCOCn1cnc2ncnc(Cl)c21	UO-31	0
CC1(C)CC[C@]2(C(=O)O)CC[C@]3(C)[C@H](C(=O)C=C4[C@@]5(C)C=C(C#N)C(=O)C(C)(C)[C@@H]5CC[C@]43C)[C@@H]2C1	UO-31	1
O=c1c(-c2ccc(O)cc2)coc2cc(OC3OC(CO)C(O)C(O)C3O)cc(O)c12 (stereo not drawn)	UO-31	0
COc1ccc(C(=O)/C(=N/Nc2ccccc2)c2ccc(OC)cc2)cc1	UO-31	0
C#CC1(O)C(COP(=O)(O)OC(COCCCCCCCCCCCCCCCCCC)COP(=O)(O)OCC2OC(n3cc(C)c(=O)[nH]c3=O)CC2N=[N+]=[N-])OC(n2ccc(N)nc2=O)C1O (stereo not drawn)	UO-31	1
CCOC(=O)C(NC(=O)OC(C)(C)C)C(=O)OCC	UO-31	0
CC(C)/C(Cl)=N\OC(=O)Nc1ccc(C#N)cc1	UO-31	0
O=C(/C=C/c1ccc(O)c(O)c1)OCCOC(=O)/C=C/c1ccc(O)c(O)c1	UO-31	0
COc1cccc(/C=C2\CCC(CCN(C)C)(C3=CCCC3)C2=O)c1 (stereo not drawn)	UO-31	0
O=c1c2cc([N+](=O)[O-])ccc2nc2n1CCCCC2	UO-31	0
CC(C)(C)OC(=O)N1CCC(NC(=O)NC2CCN(C(=O)OC(C)(C)C)CC2)CC1	UO-31	0
S=C1C=C(c2ccccc2)Sc2ccccc2N1	UO-31	0
C#CCOC(=O)C(N)CCCNC(=N)N (stereo not drawn)	UO-31	0
O=C1NC(=S)NC(=O)C1=Cc1ccc(-c2ccccc2)cc1	UO-31	0
c1ccc(C2N=C(c3ccccn3)C(c3ccccn3)=NC2c2ccccc2)cc1 (stereo not drawn)	UO-31	0
CC(=O)Nc1cc2c3c(c1)CCCN3CCC2	UO-31	0
Cc1cc(S(=O)(=O)/N=C(\NN)Nc2ccc(Cl)cc2)c(S)cc1Cl	UO-31	0
